Please respond with reported IC50 for every item in the list.
Tested on: HIV-1 IIIB (cell-free virus)
EXPERIMENT_NOTES: microbe, parasite or virus in culture
Assay type: cell-based
RECORDED_CONDITIONS: Human immunodeficiency virus 1, IIIB; Table 1; 2 h incubation, wash, 48 h culture; read-out: IC50 Cell-Free Virus IIIB
Answers are plain numbers, in µg/mL.

Example results:
Give a short answer stating reported IC50 for "CCCCCCCCCCCCCC(=O)OC[C@H]1O[C@@H](n2cc(F)c(N)nc2=O)CS1" . 0.056

Give a short answer stating reported IC50 for "CCSCCCCCCCCCCCC(=O)Nc1ccn([C@H]2CS[C@@H](CO)O2)c(=O)n1" . 2.5

Give a short answer stating reported IC50 for "CCSCCCCCCCCCCCC(=O)OC[C@H]1O[C@@H](n2cc(F)c(N)nc2=O)CS1" . 0.024

Read the next record carefully.
Give a short answer stating reported IC50 for "CCCCCCCCCCCCCC(=O)OC[C@H]1O[C@@H](n2ccc(N)nc2=O)CS1" . 0.3
